biological target: BaF3 TELJAK2 cells (BafT_J2) (Homo sapiens, UniProt O60674); construct: fused on or other part: TEL (ETV6) N-terminal part, coding nucleotides 1-487, serves as the oligomerising partner; It is fused through a Sal I site to the JAK2 kinase domain and expressed from pTRE2 in BaF3 cells bearing pTET-off; P41212 (Transcription factor ETV6); assay: Cellular screening, BaF3 TEL:JAK2 cells, Alamar Blue; assay type: cell-based; details: 40 hr, read-out: BafT_J2 IC50_nM
Sequence (O60674 whole entry, stated change not applied, the tested form may be a part): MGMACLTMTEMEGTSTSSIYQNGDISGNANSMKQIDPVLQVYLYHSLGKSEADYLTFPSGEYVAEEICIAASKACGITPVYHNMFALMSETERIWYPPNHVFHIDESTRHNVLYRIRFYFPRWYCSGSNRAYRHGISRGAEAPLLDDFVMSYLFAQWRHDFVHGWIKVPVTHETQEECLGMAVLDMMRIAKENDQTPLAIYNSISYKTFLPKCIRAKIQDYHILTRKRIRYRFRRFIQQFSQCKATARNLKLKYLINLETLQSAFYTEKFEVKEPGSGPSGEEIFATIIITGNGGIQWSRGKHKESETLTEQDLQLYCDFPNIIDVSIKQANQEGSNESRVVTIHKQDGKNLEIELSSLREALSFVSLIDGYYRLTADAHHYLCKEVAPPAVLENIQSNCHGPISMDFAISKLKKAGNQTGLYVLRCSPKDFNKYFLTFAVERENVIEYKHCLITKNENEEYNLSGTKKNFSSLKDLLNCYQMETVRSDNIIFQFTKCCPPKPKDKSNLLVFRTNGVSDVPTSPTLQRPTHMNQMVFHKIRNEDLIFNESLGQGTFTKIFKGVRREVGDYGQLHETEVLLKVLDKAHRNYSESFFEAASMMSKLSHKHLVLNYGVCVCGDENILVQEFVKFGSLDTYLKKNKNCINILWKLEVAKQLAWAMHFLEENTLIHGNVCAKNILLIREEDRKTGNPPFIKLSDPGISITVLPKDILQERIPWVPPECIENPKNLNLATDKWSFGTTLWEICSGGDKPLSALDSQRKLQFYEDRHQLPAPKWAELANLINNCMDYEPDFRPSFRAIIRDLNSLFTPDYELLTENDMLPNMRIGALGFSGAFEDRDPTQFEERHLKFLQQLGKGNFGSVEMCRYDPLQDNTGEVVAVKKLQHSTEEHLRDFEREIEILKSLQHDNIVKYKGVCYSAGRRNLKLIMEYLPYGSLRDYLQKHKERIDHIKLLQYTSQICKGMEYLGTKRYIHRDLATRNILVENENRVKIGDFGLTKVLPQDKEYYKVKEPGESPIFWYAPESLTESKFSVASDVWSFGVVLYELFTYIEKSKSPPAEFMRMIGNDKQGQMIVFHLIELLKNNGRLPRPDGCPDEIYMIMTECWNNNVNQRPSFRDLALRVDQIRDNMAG
Exercise: for every item that follows, state its recorded GI50.

Request: Fill in the recorded GI50 for this molecule, with BaF3 TELJAK2 cells (BafT_J2) (Homo sapiens, UniProt O60674) as test system: N#Cc1nnn(Cc2ccc(Sc3ccnc(Nc4ccc(N5CCOCC5)cc4)n3)cc2)n1
Result: < 5 µM

Request: Fill in the recorded GI50 for this molecule, with BaF3 TELJAK2 cells (BafT_J2) (Homo sapiens, UniProt O60674) as test system: C=CC(=O)Nc1ccc(Sc2nc(Nc3cccc(O)c3)ncc2C)cc1
Result: < 20 µM

Request: What is its GI50 for BaF3 TELJAK2 cells (BafT_J2) (Homo sapiens, UniProt O60674)? Entry: COC(=O)COCC(=O)Nc1ccc(Sc2nc(Nc3ccc(N4CCOCC4)cc3)ncc2C)cc1
Result: < 20 µM

Request: // fetch BaF3 TELJAK2 cells (BafT_J2) (Homo sapiens, UniProt O60674) GI50 for C=CC(=O)Nc1ccc(Sc2nc(Nc3ccc(N4CCOCC4)cc3)ncc2F)cc1
Result: > 20 µM

Request: Requested read-out GI50, target or system BaF3 TELJAK2 cells (BafT_J2) (Homo sapiens, UniProt O60674), entry C=CC(=O)Nc1ccc(Sc2ccnc(Nc3ccc(OC)cc3)n2)cc1
Result: > 20 µM

Request: Lab note: need GI50 with BaF3 TELJAK2 cells (BafT_J2) (Homo sapiens, UniProt O60674) for entry Cc1cnc(Nc2ccc(N3CCOCC3)cc2)nc1Sc1ccc(N2C(=O)C=C(Br)C2=O)cc1 , please look it up.
Result: < 20 µM

Request: Under BaF3 TELJAK2 cells (BafT_J2) (Homo sapiens, UniProt O60674): GI50 value of C=CC(=O)Nc1ccc(Sc2ccnc(Nc3ccc(OC)c(O)c3)n2)cc1 ?
Result: < 5 µM

Request: Kindly state the measured GI50 obtained for C=CC(=O)Nc1cccc(Nc2nccc(Sc3ccccn3)n2)c1 with BaF3 TELJAK2 cells (BafT_J2) (Homo sapiens, UniProt O60674).
Result: < 5 µM

Request: Write down the reported GI50 of C=CC(=O)Nc1ccc(Sc2ccnc(Nc3ccc(C(=O)OC)cc3)n2)cc1 , test system: BaF3 TELJAK2 cells (BafT_J2) (Homo sapiens, UniProt O60674).
Result: < 5 µM

Request: GI50 of C=CC(=O)Nc1ccc(Sc2nc(Nc3ccc(N4CCOCC4)c(OC)c3)ncc2C)cc1 on BaF3 TELJAK2 cells (BafT_J2) (Homo sapiens, UniProt O60674)?
Result: < 20 µM

Request: Requested read-out GI50, target or system BaF3 TELJAK2 cells (BafT_J2) (Homo sapiens, UniProt O60674), entry N#CCC(=O)Nc1ccc(Sc2ccnc(Nc3ccc(N4CCC(N5CCCC5)CC4)cc3)n2)cc1
Result: < 5 µM

Request: Entry C=CC(=O)Nc1ccc(Sc2ccnc(Nc3ccc(N4CCOCC4)cc3)n2)c(Cl)c1C , system BaF3 TELJAK2 cells (BafT_J2) (Homo sapiens, UniProt O60674): what GI50 was measured?
Result: > 20 µM

Request: Could you share what GI50 was measured for C=CC(=O)Nc1ccc(Sc2nc(Nc3ccc(N4CCOCC4)cc3)ncc2C)cc1 , tested on BaF3 TELJAK2 cells (BafT_J2) (Homo sapiens, UniProt O60674)?
Result: > 20 µM
